# subject.of.test: Serotonin 2 receptors; 5-HT2a & 5-HT2c (Homo sapiens) (UniProt P28223+P28335)
# Sequence (P28223 whole entry, looked up, one chain of several): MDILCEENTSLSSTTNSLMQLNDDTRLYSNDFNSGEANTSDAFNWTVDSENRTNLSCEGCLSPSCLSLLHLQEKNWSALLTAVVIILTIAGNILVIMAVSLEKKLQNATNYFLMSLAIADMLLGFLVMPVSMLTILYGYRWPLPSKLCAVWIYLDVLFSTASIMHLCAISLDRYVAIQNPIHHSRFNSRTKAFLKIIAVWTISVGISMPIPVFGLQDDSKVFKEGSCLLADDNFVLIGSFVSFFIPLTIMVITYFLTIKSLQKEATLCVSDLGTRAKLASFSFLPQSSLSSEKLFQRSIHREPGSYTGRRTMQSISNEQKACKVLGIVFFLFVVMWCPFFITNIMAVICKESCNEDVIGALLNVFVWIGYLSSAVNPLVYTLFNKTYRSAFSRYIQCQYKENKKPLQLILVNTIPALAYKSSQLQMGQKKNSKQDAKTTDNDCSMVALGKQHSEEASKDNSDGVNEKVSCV
# protocol.text: Selectivity ratio of binding affinity of 5-hydroxytryptamine 2A receptor to that of 5-hydroxytryptamine 2C receptor.
# Assay type: protein assay
assay.readout: Selectivity ratio
Provide a numeric answer; units are not to be included.

Known Selectivity ratio results, listed for orientation:
NC(=O)C(=O)c1c2n(c3ccccc13)CCNCC2 ... 2.3
Clc1ccc(Cl)c(-c2cc(Cl)cc3c2N2CCNCCC2C3)c1 (stereo not drawn) ... 0.44

Then there is this compound:
Given the entry Cc1ccccc1-c1cc(Cl)cc2c1N1CCNCCC1C2 (stereo not drawn) , report its measured Selectivity ratio.
2.05

###

# subject.of.test: Serotonin 2 receptors; 5-HT2a & 5-HT2c (Homo sapiens) (UniProt P28223+P28335)
# protocol.text: Selectivity ratio of binding affinity of 5-hydroxytryptamine 2A receptor to that of 5-hydroxytryptamine 2C receptor.
# Format: protein assay
Documented Selectivity ratio across a set of compounds
Provide a numeric answer; units are not to be included.

Known Selectivity ratio results, listed for orientation:
Clc1cc2c(c(-c3ccccc3Cl)c1)N1CCNCCC1C2 (centres undefined) ... 1.79
Cc1ccccc1-c1cccc2c1N1CCNCCC1C2 (stereo in doubt; (+)) ... 6.37
NC(=O)c1c2n(c3ccccc13)CCNCC2 ... 0.6

Then there is this compound:
Given the entry CCOc1cccc(-c2cc(Cl)cc3c2N2CCNCCC2C3)c1 (centres undefined) , report its measured Selectivity ratio.
0.49

###

# subject.of.test: UniProt:P28223
# protocol.text: Binding affinity against 5-hydroxytryptamine 2A receptor using [125I]DOI radioligand.
assay.readout: pKi
Please keep in mind that pKi is minus log10 of the molar concentration; only the number is needed.

Known pKi results, listed for orientation:
Clc1cc2c(c(-c3ccccc3Cl)c1)N1CCNCCC1C2 (configuration not stated) ... 6.99
c1ccc2c3c([nH]c2c1)CCNCC3 ... 8.00
NC(=O)C(=O)c1c2n(c3ccccc13)CCNCC2 ... 6.50
Cn1c2c(c3ccccc31)CCNCC2 ... 7.72

Given the entry COc1ccc(Cl)cc1-c1cc(Cl)cc2c1N1CCNCCC1C2 (configuration not stated) , report its measured pKi.
6.12

Given the entry Cc1ccccc1-c1cc(Cl)cc2c1N1CCNCCC1C2 (configuration not stated) , report its measured pKi.
7.06

###

Documented pKi across a set of molecules
# subject.of.test: 5-hydroxytryptamine receptor 2C (Homo sapiens, UniProt P28335)
# Sequence (P28335 whole entry): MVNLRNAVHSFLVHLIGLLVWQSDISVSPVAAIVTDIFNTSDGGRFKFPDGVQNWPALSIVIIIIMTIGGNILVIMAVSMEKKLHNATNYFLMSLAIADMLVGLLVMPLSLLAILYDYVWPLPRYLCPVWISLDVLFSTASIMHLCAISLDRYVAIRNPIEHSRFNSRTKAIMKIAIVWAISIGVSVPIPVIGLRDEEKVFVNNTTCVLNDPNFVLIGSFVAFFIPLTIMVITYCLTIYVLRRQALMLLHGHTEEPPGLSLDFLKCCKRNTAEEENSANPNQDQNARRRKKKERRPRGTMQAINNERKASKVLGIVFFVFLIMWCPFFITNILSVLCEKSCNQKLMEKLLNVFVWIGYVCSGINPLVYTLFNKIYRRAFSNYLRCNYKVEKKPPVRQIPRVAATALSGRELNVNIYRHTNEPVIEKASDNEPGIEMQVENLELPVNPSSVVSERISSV
# protocol.text: Binding affinity against 5-hydroxytryptamine 2C receptor using [125I]DOI radioligand.
Please keep in mind that pKi is minus log10 of the molar concentration; only the number is needed.

Known pKi results, listed for orientation:
NC(=O)C(=O)c1c2n(c3ccccc13)CCNCC2 ... 6.87
FC(F)(F)c1ccccc1-c1cccc2c1N1CCNCCC1C2 (single isomer, unassigned; (+)) ... 7.23
CCOc1ccc(-c2cc(Cl)cc3c2N2CCNCCC2C3)cc1 (centres undefined) ... 6.58
CCN1CCc2cc3ccccc3n2CC1 ... 7.42

Given the entry c1ccc2c3c([nH]c2c1)CCNCC3 , report its measured pKi.
8.21

Given the entry CCOc1ccccc1-c1cccc2c1N1CCNCCC1C2 (single isomer, unassigned; (+)) , report its measured pKi.
6.99

Given the entry N#Cc1c2n(c3ccccc13)CCNCC2 , report its measured pKi.
7.07

Given the entry Fc1ccc(-c2cc(Cl)cc3c2N2CCNCCC2C3)cc1 (centres undefined) , report its measured pKi.
6.51

Given the entry c1ccc2c(c1)cc1n2CCNCC1 , report its measured pKi.
8.32

Given the entry CCCN1CCc2cc3ccccc3n2CC1 , report its measured pKi.
7.19

Reference for the values: ChEMBL document CHEMBL1136110
